- System: PC-3 prostate
- METHOD NOTES: NCI-60 one-dose screen, 48 h (100 = growth as untreated, 0 = no growth, -100 = all killed)
- STUDY CONDITIONS: 10 µM
Compounds without any hit were thinned out: in the full panel of roughly 83,000, 20% have a hit.
So basically every entry gets a class from its growth, ranges being lower range: < 50%; middle range: ≥ 50% and < 80%; upper range: ≥ 80%

O=C(Nc1ccccc1)Nc1cccc(-n2cc(-c3ccncc3)c(-c3ccc(O)c(Cl)c3)n2)c1: lower range

Query: For the record COc1ccc(C2=NN(C(=O)c3ccc(S(C)(=O)=O)cc3)C(c3ccc(OC)c(OC)c3)C2)c(OC)c1 (stereo not given) , report the class its growth corresponds to.
Reply: upper range

Query: For the record CCc1ccc2c(c1)N(CCO)C1=C(C(=O)OC1)C2c1ccccc1 (stereo not given) , report the class its growth corresponds to.
Reply: upper range

Query: For the record `COc1ccc(Nc2ncnc3c2c(SC)nn3-c2ccccc2)cc1` , report the class its growth corresponds to.
Reply: middle range

Query: For the record `COc1ccccc1CNCCN1C(=O)c2ccc3c4c(ccc(c24)C1=O)C(=O)N(CCNCc1ccccc1OC)C3=O` , report the class its growth corresponds to.
Reply: lower range

Query: For the record `O=C1C(=O)c2ccccc2C(O)=C1CCCc1ccc(C2CCCCCC2)cc1` , report the class its growth corresponds to.
Reply: lower range

Query: For the record O=C(Nc1ccc(Cl)cc1)N1NC(c2ccc(Cl)cc2)C=C1c1ccccc1 (stereo not given) , report the class its growth corresponds to.
Reply: upper range

Query: For the record `Fc1cc(C(F)(F)F)ccc1-c1cncnc1NC1CCCCCC1` , report the class its growth corresponds to.
Reply: upper range

Query: For the record CCN(CC)CCC(CNc1c(C)cnc2cc(Cl)ccc12)c1ccc(Cl)cc1 (stereo not given) , report the class its growth corresponds to.
Reply: middle range

###

- System: COLO 205 colon
- METHOD NOTES: NCI-60 one-dose screen, 48 h (100 = growth as untreated, 0 = no growth, -100 = all killed)
- STUDY CONDITIONS: 10 µM
The panel holds about 83,000 compounds, 20% with a hit somewhere; the sample as a whole holds those more often.
READOUT: growth (%)
Your answer should be a plain number; it is taken to be in %.

Solved cases (4 shown):
CC(=O)/C(=C/c1ccccc1)C(=O)CC(C)C: 100
CCOC(=O)CNC(=O)CCCCSc1ncnc2nc[nH]c12: 111
C#Cc1ccc(-n2c(/C=C/c3cc(OC)cc(OC)c3)nc3ncccc3c2=O)cc1: 117
CCN(CC)CCCC(C)Nc1nc(-c2ccc(OC)cc2)nc2cc(Cl)ccc12 (stereo unspecified): 41.6

Query: For the compound CC(=O)C1CCC2C3CC(F)C4=CC(=O)CCC4(C)C3C(O)CC12C (stereo unspecified) , what growth is on record?
Reply: 104

Query: For the compound `COc1ccc(-n2c(SCc3cc(OC)c(OC)c(OC)c3)nc3ccc(C)cc3c2=O)cc1` , what growth is on record?
Reply: 32.7

###

- Tested on: OVCAR-8 ovarian
- METHOD NOTES: NCI-60 one-dose screen, 48 h (100 = growth as untreated, 0 = no growth, -100 = all killed)
- STUDY CONDITIONS: 10 µM
About 83,000 compounds went through this panel and 20% of them were active in at least one assay; those are over-represented in the sample as a whole.
READOUT: growth (%)
Your answer should be a plain number; it is taken to be in %.

Solved cases (4 shown):
Nc1ncn([C@@H]2O[C@H](CO)[C@@H](O)[C@H]2O)c(=O)n1: 22.4
CSCCCNC(=O)c1ccc2c(c1)/C(=C/c1[nH]c(C)cc1C)C(=O)N2: 32.6
CC(=O)C1CCC2C3CC(F)C4=CC(=O)CCC4(C)C3C(O)CC12C (stereo not given): 94.2
O=C(Nc1ccncc1)C(=O)c1cn(S(=O)(=O)c2cccc3ccccc23)c2ccccc12: 92.4

Now examine the next entry.
Query: For the molecule `COc1cc(-c2cc(/C=C3\C(=O)Nc4ccc(Cl)cc43)[nH]n2)cc(OC)c1OC` , what growth is on record?
Reply: 7.57

###

- System: OVCAR-3 ovarian
- METHOD NOTES: NCI-60 one-dose screen, 48 h
- STUDY CONDITIONS: 10 µM
The panel holds about 83,000 compounds, 20% with a hit somewhere; the sample as a whole holds those more often. Calls of active or inactive are those of the source. The calls were made as follows: active = growth percent below 10; inactive = the rest.
// allowed return values: active, inactive

Sample answers from the record:
Cc1ccc(-c2n[nH]c(=O)c3noc(-c4ccc(C)cc4)c23)cc1: active
O=C(O)CN1C(=O)c2cccc3cccc(c23)C1=O: inactive
O=C(Nc1cccc(-n2cc(-c3ccncc3)c(-c3ccc(O)c(Cl)c3)n2)c1)Nc1cccc(C(F)(F)F)c1: active
COc1cc(NC(=O)c2sc3nc4c(cc3c2N)C(O)CCC4)cc(OC)c1 (configuration not stated): inactive
CCCCC/C=C/C(=O)CCc1ccc(O)c(OC)c1: inactive

We now examine a further molecule.
Query: I would be grateful if you could indicate the recorded call for `N=C1c2nc3n(c2C(=O)c2nc4n(c21)CCCC4)CCCC3` .
Reply: inactive

###

- System: M14 melanoma
- METHOD NOTES: NCI-60 one-dose screen, 48 h (100 = growth as untreated, 0 = no growth, -100 = all killed)
- STUDY CONDITIONS: 10 µM
Compounds without any hit were thinned out: in the full panel of roughly 83,000, 20% have a hit.
Attribute: growth
Your answer should be a plain number; it is taken to be in %.

Solved cases (4 shown):
Clc1ccc(/C=C2\CCCC3=C2N=C2SC=NN2C3c2ccc(Cl)cc2)cc1 (stereo not given): 94.9
Nc1nc(Nc2ccccc2)n[nH]1: 96.5
COc1cc(NC(=O)CCSc2nc3ccc(C)cc3c(=O)n2Cc2ccccc2)cc(OC)c1OC: 87.4
N=C(N)c1ccc(-c2ccc(-c3ccco3)o2)cc1: 74

Query: For the compound `COc1ccc2c(c1)sc1nc(-c3ccccc3)c(-c3cccnc3)n12` , what growth is on record?
Reply: 97.7

Query: For the compound `C[C@]12CC[C@@H]3c4ccc(O)cc4C[C@@H](O)[C@H]3[C@@H]1CC[C@@H]2O` , what growth is on record?
Reply: 105

Query: For the compound `N=C(N)c1ccc(-c2ccc(-c3cccs3)o2)cc1` , what growth is on record?
Reply: -27.4

Query: For the compound COc1cc(NC(=O)c2sc3nc4c(cc3c2N)C(O)CCC4)cc(OC)c1 (stereo not given) , what growth is on record?
Reply: 75.4

Query: For the compound `Cc1ccc(S(=O)(=O)OCCN(CCOS(=O)(=O)c2ccc(C)cc2)c2c[nH]c(=O)[nH]c2=O)cc1` , what growth is on record?
Reply: 105

Query: For the compound CCCCN(CCCC)CCCCCCCCC(O)c1cc2ccccc2c2ccccc12 (stereo not given) , what growth is on record?
Reply: 45.7

###

- System: HCC-2998 colon
- METHOD NOTES: NCI-60 one-dose screen, 48 h
- STUDY CONDITIONS: 10 µM
About 83,000 compounds went through this panel and 20% of them were active in at least one assay; those are over-represented in the sample as a whole. Activity calls are given as the source filed them. Rule for the calls: active = growth percent below 10; inactive = the rest.
// allowed return values: T (active), F (inactive)

N#CCCN(NC(=O)OCc1ccccc1)C(=O)OCc1ccccc1: F
COc1ccc(S(=O)(=O)Nc2c(/C=C\c3cc(OC)c(OC)c(OC)c3)ccc(OC)c2O)cc1: F
Nc1nc(-c2ccccc2Cl)cc(-c2ccc(Cl)cc2Cl)n1: F
N#Cc1cccc(OCc2nc(N)nc(N)c2-c2ccc(Cl)c(Cl)c2)c1: F
Cc1cccc2c(NCCN(C)C)c3cccc(C(=O)NCCN(C)C)c3nc12: T
COc1cc(Cl)cc(-c2nn(-c3cccc(NC(=O)c4ccc(Cl)c(Cl)c4)c3)cc2-c2ccncc2)c1: F
COc1ccc(-n2c(SCc3cc(OC)c(OC)c(OC)c3)nc3ccc(C)cc3c2=O)cc1: F
CCN1Cc2c(/C=C/c3ccccc3)nc3ccc(OC)cc3c2N(c2cccc(Cl)c2)C1: F

Query: I would be grateful if you could indicate the recorded call for `Clc1cc2c(c(CSc3nc4ccccc4n4cccc34)c1)OCOC2` .
Reply: F

Query: I would be grateful if you could indicate the recorded call for `COc1ccc(S(=O)(=O)NCCCNc2nccc(-c3c(-c4ccc(F)cc4)nc4sccn34)n2)cc1` .
Reply: F

###

- Tested on: HS 578T breast
- METHOD NOTES: NCI-60 one-dose screen, 48 h
- STUDY CONDITIONS: 10 µM
- Description: Growth inhibition of the HS 578T human tumor cell line is measured as a screen for anti-cancer activity. Cells are grown in 96 well plates and exposed to the test compound for 48 hours. Compounds are tested at a single concentration, which is 10^-5 M for most compounds. The reported endpoint is percent growth (GI% or GIPRCNT), where numbers from 0 - 100% represent growth inhibition, and numbers from -100% - 0 represent cell death. For example, a value of 40 represents 60% growth inhibition. […]
Compounds without any hit were thinned out: in the full panel of roughly 83,000, 20% have a hit. The source made the active and inactive calls. How the source made its calls: active means growth percent below 10; inactive means the rest.
// allowed return values: T (active), F (inactive)

Sample answers from the record:
Nc1nc(-c2ccccc2Cl)cc(-c2ccc(Cl)cc2Cl)n1: F
COc1ccc(-c2nc3sc(C4CC4)nn3c2/C=C2/C(=O)Nc3ccc(OC)cc32)cc1: F

Query: I would be grateful if you could indicate the recorded call for `COc1cc(-c2nnc(-c3c(-c4ccc(F)cc4)nc4ccccn34)o2)cc(OC)c1OC` .
Reply: F
